Data origin: paper PMC11251182

molecular target: human recombinant Aldh1a1 (hAldh1a1) (Homo sapiens, UniProt P00352); construct: recombinant human Aldh1a1 protein (Novoprotein, CF44); test: SPR (Biacore T200, CM5 chip, amine coupling); also inhibited the recombinant enzyme's activity at […]
Sequence (P00352 2-501): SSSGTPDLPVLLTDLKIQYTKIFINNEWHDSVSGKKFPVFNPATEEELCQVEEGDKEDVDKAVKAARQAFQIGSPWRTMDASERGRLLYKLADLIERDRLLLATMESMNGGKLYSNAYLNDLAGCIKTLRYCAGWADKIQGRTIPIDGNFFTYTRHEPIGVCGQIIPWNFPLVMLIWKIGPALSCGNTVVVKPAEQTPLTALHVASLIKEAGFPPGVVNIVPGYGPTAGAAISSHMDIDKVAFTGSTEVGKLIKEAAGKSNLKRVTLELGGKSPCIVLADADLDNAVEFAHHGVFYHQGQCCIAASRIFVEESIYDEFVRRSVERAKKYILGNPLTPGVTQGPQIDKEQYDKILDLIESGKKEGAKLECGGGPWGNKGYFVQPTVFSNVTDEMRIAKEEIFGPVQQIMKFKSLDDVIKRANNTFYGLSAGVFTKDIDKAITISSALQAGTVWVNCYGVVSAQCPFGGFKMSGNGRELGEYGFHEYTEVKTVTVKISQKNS
ASSAY ENDPOINT: Kd (µM)
# output: bare number, implied unit µM

Task: Looking for the measured Kd of COC(=O)C1=C(C)NC(C)=C(C(=O)OCCN(C)Cc2ccccc2)C1c1cccc([N+](=O)[O-])c1 (stereo not shown) [13-F9, nicardipine] , can you help?
Output: 1.98
